# TEST: cell viability in Huh7 cells, primary screen, cytotoxicity control for HCV replication inhibitor project, CellTiter-Glo luminescence, basal, 48 h (AID 1143);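 also: Huh7 hepatoma cells carrying a hepatitis C replication reporter with no stimulus; test concentration not given here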
# CONDITION INFO: Huh7 HCV replicon, higher = more signal, called active from +8 up or from −8 down
Assign classes using reported z-score values and the ranges Low = under -2, Mid = from -2 up to -0.3, High = -0.3 and over, please.

[
  {
    "COMPOUND": "O=C1C[C@@](C(=O)NC2CC2)(c2ccc([N+](=O)[O-])cc2)[C@@H](c2ccc(CO)cc2I)N1C1CCCCC1",
    "CATEGORY LABEL": "Low"
  }
]

Query: Dear colleague, I would appreciate it if you could identify the bin for CCN(CC)c1ccc(N2CC=CC34O[C@@H]5C=CCCOC(=O)C5[C@H]3C(=O)N(CCCCCCO)[C@@H]4C2=O)cc1 (stereo partly drawn) and reply at your convenience.
Reply: Mid

Query: Another compound: COCCOC(=O)N1C(=O)[C@@]2(c3cc(C#CCNC(N)=O)ccc31)[C@H](C(=O)Nc1nc3ccccc3s1)[C@H]1C(=O)O[C@H](c3ccccc3)[C@H](c3ccccc3)N1[C@@H]2c1ccc(OCCO)cc1
Reply: High

Query: Then C=C(CCCC)/C(=C/C[C@@H](OC(=O)c1ccncc1)c1ccc(OCCO)cc1)c1cc(C(=O)OC)ccc1OC ?
Reply: Mid

Each recorded value in this set is attributed to PubChem BioAssay.
